- target_entity: T1, recombinant human CD63 second extracellular domain (Ala 103-Val 203) fused with a polyhistidine tag at the … (human, UniProt P08962 103-203)
- T1 construct: range 103-203; Bought from Creative BioMart; also called human His-tagged CD63; soluble CD63
- T1 sequence (looked up): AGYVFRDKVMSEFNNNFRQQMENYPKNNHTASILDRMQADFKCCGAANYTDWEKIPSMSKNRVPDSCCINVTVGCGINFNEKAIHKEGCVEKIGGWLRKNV
- protocol_summary: BLI (Octet HTX), IgG on anti-human Fc sensors, His-tagged CD63 as analyte, 30 C
Exercise: for every item that follows, state its recorded kon.
Report the figure in M⁻¹ s⁻¹ without appending any unit label.

Indicate the recorded kon value for this binder: IgG1-CD63 affinity variant Y127 (antibody, V domains shown, As m1 with one histidine substitution) VH: EVQLQQSGPELVKPGASVKMSCKASGYTFTSYVMHWVRQTPGQGLEWIGYITPYNDGTKYNEKFKGKATLTSDKSSSTAYMELSSLTSEDSAVYYCVGGDNYYYAMDHWGQGTSVTVSA VL: NIMVTQSPSSLAVSAGEKVTMSCKSSQSVLYSSNQKNYLAWYQQKPGQSPKLLIYWASTRVSGVPDRFTGSGSGTDFTLTISRVQAEDLAVYYCHQYFSSFTFGSGTKLEIKR
200000

Give a short answer stating reported kon for IgG1-CD63 affinity variant Y79H (antibody, V domains shown, As m1 with one histidine substitution) VH: EVQLQQSGPELVKPGASVKMSCKASGYTFTSYVMHWVRQTPGQGLEWIGYITPYNDGTKHNEKFKGKATLTSDKSSSTAYMELSSLTSEDSAVYYCVGGDNYYYAMDYWGQGTSVTVSA VL: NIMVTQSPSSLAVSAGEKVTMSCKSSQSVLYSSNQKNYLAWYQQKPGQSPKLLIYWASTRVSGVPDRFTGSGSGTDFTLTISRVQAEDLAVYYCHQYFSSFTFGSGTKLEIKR .
210000

Specify measured kon for IgG1-CD63 affinity variant Y121H (antibody, V domains shown, As m1 with one histidine substitution) VH: EVQLQQSGPELVKPGASVKMSCKASGYTFTSYVMHWVRQTPGQGLEWIGYITPYNDGTKYNEKFKGKATLTSDKSSSTAYMELSSLTSEDSAVYYCVGGDNHYYAMDYWGQGTSVTVSA VL: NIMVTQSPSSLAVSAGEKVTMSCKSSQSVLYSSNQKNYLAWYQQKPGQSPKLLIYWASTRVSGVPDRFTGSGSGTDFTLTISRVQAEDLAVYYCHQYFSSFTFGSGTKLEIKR .
70000

Data provenance: patent US20190352423A1
